System: Enterococcus faecalis
METHOD: Antimicrobial activity against Enterococcus faecalis expressing VanA gene clinical isolates by broth microdilution method
Assay type: functional
ENDPOINT LABEL: MIC90 (µg/mL)
Enter your answer as a number in µg/mL; do not include the unit.

Below: 3 compounds and their reported MIC90.
{"COMPOUND": "CN[C@H](CC(C)C)C(=O)N[C@H]1C(=O)N[C@@H](CC(N)=O)C(=O)N[C@H]2C(=O)N[C@H]3C(=O)N[C@H](C(=O)N[C@H](C(=O)O)c4cc(O)cc(O)c4-c4cc3ccc4O)[C@H](O[C@H]3C[C@](C)(N)[C@@H](O)[C@H](C)O3)c3ccc(c(Cl)c3)Oc3cc2cc(c3O[C@@H]2O[C@H](CO)[C@@H](O)[C@H](O)[C@H]2O[C@H]2C[C@](C)(NCc3ccc(-c4ccc(Cl)cc4)cc3)[C@@H](O)[C@H](C)O2)Oc2ccc(cc2Cl)[C@H]1O [ORITAVANCIN]", "ENDPOINT LABEL": "MIC90", "SCALE UNIT": "µg/mL", "REPORTED MEASUREMENT": 1}
{"COMPOUND": "CCCCCCCCCC(=O)N[C@@H](Cc1c[nH]c2ccccc12)C(=O)N[C@H](CC(N)=O)C(=O)N[C@@H](CC(=O)O)C(=O)N[C@@H]1C(=O)NCC(=O)N[C@@H](CCCN)C(=O)N[C@@H](CC(=O)O)C(=O)N[C@H](C)C(=O)N[C@@H](CC(=O)O)C(=O)NCC(=O)N[C@H](CO)C(=O)N[C@@H]([C@H](C)CC(=O)O)C(=O)N[C@@H](CC(=O)c2ccccc2N)C(=O)O[C@@H]1C", "ENDPOINT LABEL": "MIC90", "SCALE UNIT": "µg/mL", "REPORTED MEASUREMENT": 2}
{"COMPOUND": "CC(=O)NC[C@H]1CN(c2ccc(N3CCOCC3)c(F)c2)C(=O)O1 [LINEZOLID]", "ENDPOINT LABEL": "MIC90", "SCALE UNIT": "µg/mL", "REPORTED MEASUREMENT": 2}

# input for lookup
Input: // fetch MIC90 for CC1(C)S[C@@H]2[C@H](NC(=O)[C@H](N)c3ccccc3)C(=O)N2[C@H]1C(=O)O [AMPICILLIN] ; system: Enterococcus faecalis
Output: 2

====

A collection of compounds and their measured Activity
METHOD: Antimicrobial activity against erythromycin-nonsusceptible Streptococcus Group C clinical isolates assessed as percent susceptible isolates by broth microdilution method
Type: functional, Streptococcus sp. 'group C'
Enter your answer as a number in %; do not include the unit.

{"COMPOUND": "CCC[C@@H]1C[C@@H](C(=O)N[C@@H]([C@H]2O[C@H](SC)[C@H](O)[C@@H](O)[C@H]2O)[C@H](C)Cl)N(C)C1 [CLINDAMYCIN]", "Activity / %": 82.4}
{"COMPOUND": "CN[C@H](CC(C)C)C(=O)N[C@H]1C(=O)N[C@@H](CC(N)=O)C(=O)N[C@H]2C(=O)N[C@H]3C(=O)N[C@H](C(=O)N[C@H](C(=O)O)c4cc(O)cc(O)c4-c4cc3ccc4O)[C@H](O)c3ccc(c(Cl)c3)Oc3cc2cc(c3O[C@@H]2O[C@H](CO)[C@@H](O)[C@H](O)[C@H]2O[C@H]2C[C@](C)(N)[C@H](O)[C@H](C)O2)Oc2ccc(cc2Cl)[C@H]1O [VANCOMYCIN]", "Activity / %": 100}
{"COMPOUND": "CC1(C)S[C@@H]2[C@H](NC(=O)Cc3ccccc3)C(=O)N2[C@H]1C(=O)O [PENICILLIN G]", "Activity / %": 100}

# input for lookup
Input: Give Activity for CC[C@H]1OC(=O)[C@H](C)[C@@H](O[C@H]2C[C@@](C)(OC)[C@@H](O)[C@H](C)O2)[C@H](C)[C@@H](O[C@@H]2O[C@H](C)C[C@H](N(C)C)[C@H]2O)[C@](C)(O)C[C@@H](C)C(=O)[C@H](C)[C@@H](O)[C@]1(C)O [ERYTHROMYCIN]
Output: 0
